System: UACC-62 melanoma
Test: NCI-60 one-dose screen, 48 h (100 = growth as untreated, 0 = no growth, -100 = all killed)
Settings: 10 µM
This is part of a sample that, as a whole, favours compounds with a hit. Of some 83,000 tested, about 20% had one in any assay.
Note to self: values exactly at 90% are Condition met. So growth at or above 90% is Condition met, below is Condition not met.

Would you please look over these solved cases?
# COMPOUND, SUBJECT OF TEST, CLASS NAME
rows = [
    ("C#C[C@]1(O)CC[C@H]2[C@@H]3CC[C@H]4CC(F)(F)CC[C@]4(C)[C@H]3CC[C@@]21C", "UACC-62 melanoma", "Condition not met"),
    ("O=c1oc2cc(OS(=O)(=O)C3CC3)ccc2c2c1CCCCCC2", "UACC-62 melanoma", "Condition not met"),
    ("FC(F)(F)c1ccc(-c2nc(-c3nc4cc(Cl)c(Cl)cc4[nH]3)c3ccccn23)cc1", "UACC-62 melanoma", "Condition not met"),
    ("CCOc1nc(-c2ccccc2)cc2c(O)c(C(=O)N/N=C/c3ccc(OC)cc3)[nH]c(=O)c12", "UACC-62 melanoma", "Condition met"),
    ("COc1ccc(/C=C2\\CCC3C(CCCC34OCCO4)C2=O)cc1 (stereo not drawn)", "UACC-62 melanoma", "Condition not met"),
    ("N#Cc1ccc(-n2cnc(NC(=O)[C@H]3CCN(C#N)C3)c2)cc1", "UACC-62 melanoma", "Condition not met"),
]

Next:
Could you tell me if the measured growth of "O=C(O)CCCN1C(=O)NC2(C1=O)c1ccccc1-c1ccccc12" reaches 90% or more? Condition met

----------
Tested on: NCI-H322M lung
Experiment: NCI-60 one-dose screen, 48 h
Details: 10 µM
Compounds without any hit were thinned out: in the full panel of roughly 83,000, 20% have a hit. Calls of active or inactive are those of the source. Rule for the calls: active = growth percent below 10; inactive = the rest.
I would appreciate it if you answered using one of these outcomes: active, inactive

See these solved cases before continuing.
# QUERY SMILES, SUBJECT OF TEST, CLASS NAME
rows = [
    ("CN(C)CCCN(Cc1ccccc1O)C(=S)Nc1ccc(Cl)cc1", "NCI-H322M lung", "inactive"),
    ("FC(F)(F)c1ccc(-c2nc(-c3nc4cc(Cl)c(Cl)cc4[nH]3)c3ccccn23)cc1", "NCI-H322M lung", "inactive"),
    ("c1ccc(CNc2nc(Nc3ccc(-c4nc5ccccc5[nH]4)cc3)c3cn[nH]c3n2)cc1", "NCI-H322M lung", "inactive"),
    ("COc1cc(-c2cc(-c3cc(OC)c(OC)c(OC)c3)nc3nc(N)[nH]c(=O)c23)ccc1Oc1ccnc2cc(Cl)ccc12", "NCI-H322M lung", "inactive"),
    ("CCc1ccc(-c2nnc(COc3ccc(-c4nc5ccccc5[nH]4)cc3OC)o2)cc1", "NCI-H322M lung", "inactive"),
    ("CCCCC(CC#N)(CCC)CCC", "NCI-H322M lung", "inactive"),
]

Returns: the outcome recorded for "COC(=O)[C@]12CC[C@@H](C)[C@H](C)[C@@H]1C1=CC[C@@H]3[C@@]4(C)CC(=O)[C@H](O)[C@@](C)(CO)[C@@H]4C(=O)C[C@@]3(C)[C@]1(C)CC2" in this assay. inactive

Input "COc1cc(OC)cc(N2CCN(C(=O)Nc3nc4cc(F)ccc4nc3OC)CC2)c1" inactive

One more molecule: "Cn1c([N+](=O)[O-])cnc1/C=C1\Oc2ccc(Br)cc2C1=O" active

What would you report for "S=C(Cc1ccc(-c2ccccc2)cc1)N1CCOCC1" ? inactive
